- assay-context: in n-propanol, 313.15 K
readout-label: solubility (mole fraction)
Format: numeric value only, no unit, no commentary.

Input: Request the reported solubility (mole fraction) associated with "CC(=O)Nc1ccc(OC(=O)c2ccccc2OC(C)=O)cc1"
Output: 0.000496

* * *

- assay-context: in ethanol, 308.15 K
readout-label: solubility (mole fraction)
Format: numeric value only, no unit, no commentary.

Input: Request the reported solubility (mole fraction) associated with "CC(=O)Nc1ccc(OC(=O)c2ccccc2OC(C)=O)cc1"
Output: 0.000589

* * *

- assay-context: in n-propanol, 318.15 K
readout-label: solubility (mole fraction)

Input: Request the reported solubility (mole fraction) associated with "CC(=O)Nc1ccc(OC(=O)c2ccccc2OC(C)=O)cc1"
Output: 0.000647

* * *

- assay-context: in n-propanol, 293.15 K
readout-label: solubility (mole fraction)

Input: Request the reported solubility (mole fraction) associated with "CC(=O)Nc1ccc(OC(=O)c2ccccc2OC(C)=O)cc1"
Output: 0.000214

* * *

- assay-context: in NMP, 308.15 K
readout-label: solubility (mole fraction)
Format: numeric value only, no unit, no commentary.

Input: Request the reported solubility (mole fraction) associated with "CC(=O)Nc1ccc(OC(=O)c2ccccc2OC(C)=O)cc1"
Output: 0.0417

* * *

- assay-context: in 2-butanone, 293.15 K
readout-label: solubility (mole fraction)

Input: Request the reported solubility (mole fraction) associated with "CC(=O)Nc1ccc(OC(=O)c2ccccc2OC(C)=O)cc1"
Output: 0.00308

* * *

- assay-context: in DMF, 303.15 K
readout-label: solubility (mole fraction)
Format: numeric value only, no unit, no commentary.

Input: Request the reported solubility (mole fraction) associated with "CC(=O)Nc1ccc(OC(=O)c2ccccc2OC(C)=O)cc1"
Output: 0.0228

* * *

- assay-context: in methanol, 313.15 K
readout-label: solubility (mole fraction)
Format: numeric value only, no unit, no commentary.

Input: Request the reported solubility (mole fraction) associated with "CC(=O)Nc1ccc(OC(=O)c2ccccc2OC(C)=O)cc1"
Output: 0.000601

* * *

- assay-context: in ethyl acetate, 313.15 K
readout-label: solubility (mole fraction)
Format: numeric value only, no unit, no commentary.

Input: Request the reported solubility (mole fraction) associated with "CC(=O)Nc1ccc(OC(=O)c2ccccc2OC(C)=O)cc1"
Output: 0.00169

* * *

- assay-context: in toluene, 278.15 K
readout-label: solubility (mole fraction)
Format: numeric value only, no unit, no commentary.

Input: Request the reported solubility (mole fraction) associated with "CC(=O)Nc1ccc(OC(=O)c2ccccc2OC(C)=O)cc1"
Output: 1.3e-05

* * *

- assay-context: in ethanol, 278.15 K
readout-label: solubility (mole fraction)

Input: Request the reported solubility (mole fraction) associated with "CC(=O)Nc1ccc(OC(=O)c2ccccc2OC(C)=O)cc1"
Output: 0.000158

* * *

- assay-context: in ethanol, 298.15 K
readout-label: solubility (mole fraction)
Format: numeric value only, no unit, no commentary.

Input: Request the reported solubility (mole fraction) associated with "CC(=O)Nc1ccc(OC(=O)c2ccccc2OC(C)=O)cc1"
Output: 0.000403

* * *

- assay-context: in n-propanol, 303.15 K
readout-label: solubility (mole fraction)
Format: numeric value only, no unit, no commentary.

Input: Request the reported solubility (mole fraction) associated with "CC(=O)Nc1ccc(OC(=O)c2ccccc2OC(C)=O)cc1"
Output: 0.000327

* * *

- assay-context: in acetonitrile, 303.15 K
readout-label: solubility (mole fraction)
Format: numeric value only, no unit, no commentary.

Input: Request the reported solubility (mole fraction) associated with "CC(=O)Nc1ccc(OC(=O)c2ccccc2OC(C)=O)cc1"
Output: 0.00199

* * *

- assay-context: in isopropanol, 303.15 K
readout-label: solubility (mole fraction)
Format: numeric value only, no unit, no commentary.

Input: Request the reported solubility (mole fraction) associated with "CC(=O)Nc1ccc(OC(=O)c2ccccc2OC(C)=O)cc1"
Output: 0.000262

* * *

- assay-context: in isopropanol, 308.15 K
readout-label: solubility (mole fraction)

Input: Request the reported solubility (mole fraction) associated with "CC(=O)Nc1ccc(OC(=O)c2ccccc2OC(C)=O)cc1"
Output: 0.000323

* * *

- assay-context: in n-propanol, 308.15 K
readout-label: solubility (mole fraction)
Format: numeric value only, no unit, no commentary.

Input: Request the reported solubility (mole fraction) associated with "CC(=O)Nc1ccc(OC(=O)c2ccccc2OC(C)=O)cc1"
Output: 0.000402

* * *

- assay-context: in ethyl acetate, 293.15 K
readout-label: solubility (mole fraction)
Format: numeric value only, no unit, no commentary.

Input: Request the reported solubility (mole fraction) associated with "CC(=O)Nc1ccc(OC(=O)c2ccccc2OC(C)=O)cc1"
Output: 0.000789

* * *

- assay-context: in DMF, 298.15 K
readout-label: solubility (mole fraction)
Format: numeric value only, no unit, no commentary.

Input: Request the reported solubility (mole fraction) associated with "CC(=O)Nc1ccc(OC(=O)c2ccccc2OC(C)=O)cc1"
Output: 0.0215

* * *

- assay-context: in 2-butanone, 308.15 K
readout-label: solubility (mole fraction)
Format: numeric value only, no unit, no commentary.

Input: Request the reported solubility (mole fraction) associated with "CC(=O)Nc1ccc(OC(=O)c2ccccc2OC(C)=O)cc1"
Output: 0.00392

* * *

- assay-context: in isopropanol, 278.15 K
readout-label: solubility (mole fraction)
Format: numeric value only, no unit, no commentary.

Input: Request the reported solubility (mole fraction) associated with "CC(=O)Nc1ccc(OC(=O)c2ccccc2OC(C)=O)cc1"
Output: 7.6e-05

* * *

- assay-context: in toluene, 298.15 K
readout-label: solubility (mole fraction)

Input: Request the reported solubility (mole fraction) associated with "CC(=O)Nc1ccc(OC(=O)c2ccccc2OC(C)=O)cc1"
Output: 4.3e-05

* * *

- assay-context: in ethyl acetate, 303.15 K
readout-label: solubility (mole fraction)
Format: numeric value only, no unit, no commentary.

Input: Request the reported solubility (mole fraction) associated with "CC(=O)Nc1ccc(OC(=O)c2ccccc2OC(C)=O)cc1"
Output: 0.00119

* * *

- assay-context: in acetonitrile, 308.15 K
readout-label: solubility (mole fraction)

Input: Request the reported solubility (mole fraction) associated with "CC(=O)Nc1ccc(OC(=O)c2ccccc2OC(C)=O)cc1"
Output: 0.00236

* * *

- assay-context: in n-butanol, 308.15 K
readout-label: solubility (mole fraction)
Format: numeric value only, no unit, no commentary.

Input: Request the reported solubility (mole fraction) associated with "CC(=O)Nc1ccc(OC(=O)c2ccccc2OC(C)=O)cc1"
Output: 0.000683

* * *

- assay-context: in toluene, 318.15 K
readout-label: solubility (mole fraction)
Format: numeric value only, no unit, no commentary.

Input: Request the reported solubility (mole fraction) associated with "CC(=O)Nc1ccc(OC(=O)c2ccccc2OC(C)=O)cc1"
Output: 0.000108

* * *

- assay-context: in ethanol, 283.15 K
readout-label: solubility (mole fraction)
Format: numeric value only, no unit, no commentary.

Input: Request the reported solubility (mole fraction) associated with "CC(=O)Nc1ccc(OC(=O)c2ccccc2OC(C)=O)cc1"
Output: 0.00021

* * *

- assay-context: in acetonitrile, 298.15 K
readout-label: solubility (mole fraction)
Format: numeric value only, no unit, no commentary.

Input: Request the reported solubility (mole fraction) associated with "CC(=O)Nc1ccc(OC(=O)c2ccccc2OC(C)=O)cc1"
Output: 0.00164

* * *

- assay-context: in ethyl acetate, 288.15 K
readout-label: solubility (mole fraction)
Format: numeric value only, no unit, no commentary.

Input: Request the reported solubility (mole fraction) associated with "CC(=O)Nc1ccc(OC(=O)c2ccccc2OC(C)=O)cc1"
Output: 0.000651

* * *

- assay-context: in ethyl acetate, 283.15 K
readout-label: solubility (mole fraction)
Format: numeric value only, no unit, no commentary.

Input: Request the reported solubility (mole fraction) associated with "CC(=O)Nc1ccc(OC(=O)c2ccccc2OC(C)=O)cc1"
Output: 0.000519

* * *

- assay-context: in 1,4-dioxane, 308.15 K
readout-label: solubility (mole fraction)
Format: numeric value only, no unit, no commentary.

Input: Request the reported solubility (mole fraction) associated with "CC(=O)Nc1ccc(OC(=O)c2ccccc2OC(C)=O)cc1"
Output: 0.00298

* * *

- assay-context: in toluene, 308.15 K
readout-label: solubility (mole fraction)

Input: Request the reported solubility (mole fraction) associated with "CC(=O)Nc1ccc(OC(=O)c2ccccc2OC(C)=O)cc1"
Output: 6.8e-05

* * *

- assay-context: in ethanol, 303.15 K
readout-label: solubility (mole fraction)
Format: numeric value only, no unit, no commentary.

Input: Request the reported solubility (mole fraction) associated with "CC(=O)Nc1ccc(OC(=O)c2ccccc2OC(C)=O)cc1"
Output: 0.000486

* * *

- assay-context: in ethanol, 318.15 K
readout-label: solubility (mole fraction)
Format: numeric value only, no unit, no commentary.

Input: Request the reported solubility (mole fraction) associated with "CC(=O)Nc1ccc(OC(=O)c2ccccc2OC(C)=O)cc1"
Output: 0.000907
